Where do these numbers come from? They come from patent US20160083466A1.

So I've got a bunch of binders here, and I need their koff values.
- Target: T1, human IL-25 expressed with a C-terminal myc-myc-hexahistidine tag (human)
- T1 construct: also called human IL-25-MMH; hIL-25-MMH
- T1 chain: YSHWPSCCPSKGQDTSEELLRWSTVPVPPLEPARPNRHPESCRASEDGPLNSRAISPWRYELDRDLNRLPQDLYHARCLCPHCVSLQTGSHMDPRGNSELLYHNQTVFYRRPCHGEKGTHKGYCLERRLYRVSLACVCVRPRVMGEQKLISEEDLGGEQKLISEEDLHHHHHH
- Assay Procedure: SPR Biacore, captured mAb, 37°C
Report as a plain number; the unit s⁻¹ is understood.

Task: Quick one: give measured koff for H4H10863P (antibody, human IgG4, V domains shown) VH: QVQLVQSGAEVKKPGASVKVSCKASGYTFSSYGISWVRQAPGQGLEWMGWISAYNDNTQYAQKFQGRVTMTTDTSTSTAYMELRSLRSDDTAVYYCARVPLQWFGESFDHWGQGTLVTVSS VL: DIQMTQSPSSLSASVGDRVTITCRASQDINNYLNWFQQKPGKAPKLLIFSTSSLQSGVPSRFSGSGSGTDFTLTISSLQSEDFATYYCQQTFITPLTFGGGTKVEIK
Output: 7.78e-05

Task: Quick one: give measured koff for H4H10883P (antibody, human IgG4, V domains shown) VH: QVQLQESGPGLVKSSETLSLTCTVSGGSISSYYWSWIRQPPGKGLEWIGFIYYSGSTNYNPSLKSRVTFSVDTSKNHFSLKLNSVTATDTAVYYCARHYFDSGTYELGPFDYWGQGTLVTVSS VL: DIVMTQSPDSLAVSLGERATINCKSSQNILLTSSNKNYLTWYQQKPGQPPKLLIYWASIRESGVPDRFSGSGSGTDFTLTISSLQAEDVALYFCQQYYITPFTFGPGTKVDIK
Output: 4.8e-05

Task: Quick one: give measured koff for H4H10861P (antibody, human IgG4, V domains shown) VH: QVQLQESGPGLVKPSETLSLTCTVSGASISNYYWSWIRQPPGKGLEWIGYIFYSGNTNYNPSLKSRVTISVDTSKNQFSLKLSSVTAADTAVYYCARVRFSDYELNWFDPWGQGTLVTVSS VL: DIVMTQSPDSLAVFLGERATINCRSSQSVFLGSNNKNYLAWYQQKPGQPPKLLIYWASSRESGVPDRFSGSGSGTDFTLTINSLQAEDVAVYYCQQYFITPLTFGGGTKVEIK
Output: 7.8e-05

Task: Quick one: give measured koff for H4H10871P (antibody, human IgG4, V domains shown) VH: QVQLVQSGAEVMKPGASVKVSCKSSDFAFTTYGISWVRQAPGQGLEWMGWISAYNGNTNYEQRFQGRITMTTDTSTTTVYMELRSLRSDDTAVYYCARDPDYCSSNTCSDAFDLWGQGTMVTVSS VL: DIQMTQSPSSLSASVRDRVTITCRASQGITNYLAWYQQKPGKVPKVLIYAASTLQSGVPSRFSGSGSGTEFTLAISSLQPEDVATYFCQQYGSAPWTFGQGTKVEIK
Output: 3.18e-05

Task: Quick one: give measured koff for H4H10897P (antibody, human IgG4, V domains shown) VH: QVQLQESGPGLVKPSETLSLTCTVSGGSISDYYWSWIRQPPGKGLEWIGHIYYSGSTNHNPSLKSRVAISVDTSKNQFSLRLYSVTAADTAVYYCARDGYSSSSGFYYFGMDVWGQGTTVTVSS VL: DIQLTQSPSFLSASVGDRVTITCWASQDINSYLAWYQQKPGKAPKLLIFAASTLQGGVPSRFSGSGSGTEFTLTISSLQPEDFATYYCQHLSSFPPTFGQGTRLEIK
Output: 0.000226

Task: Quick one: give measured koff for H4H10905P (antibody, human IgG4, V domains shown) VH: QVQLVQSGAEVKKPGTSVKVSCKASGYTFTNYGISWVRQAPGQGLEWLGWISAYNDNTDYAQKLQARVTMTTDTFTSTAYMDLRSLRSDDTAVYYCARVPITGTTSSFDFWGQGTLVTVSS VL: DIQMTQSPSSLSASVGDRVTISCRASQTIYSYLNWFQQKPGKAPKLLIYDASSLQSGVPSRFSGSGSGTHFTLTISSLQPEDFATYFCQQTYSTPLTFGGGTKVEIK
Output: 0.00012

Task: Quick one: give measured koff for H4H10876P (antibody, human IgG4, V domains shown) VH: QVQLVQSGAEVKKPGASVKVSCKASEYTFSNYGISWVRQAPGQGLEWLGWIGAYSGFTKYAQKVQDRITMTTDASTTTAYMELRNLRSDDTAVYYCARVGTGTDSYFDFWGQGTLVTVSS VL: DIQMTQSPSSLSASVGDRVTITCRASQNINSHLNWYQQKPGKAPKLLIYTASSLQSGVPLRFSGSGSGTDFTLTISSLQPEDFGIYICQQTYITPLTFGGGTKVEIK
Output: 5.93e-05

Task: Quick one: give measured koff for H4H10901P (antibody, human IgG4, V domains shown) VH: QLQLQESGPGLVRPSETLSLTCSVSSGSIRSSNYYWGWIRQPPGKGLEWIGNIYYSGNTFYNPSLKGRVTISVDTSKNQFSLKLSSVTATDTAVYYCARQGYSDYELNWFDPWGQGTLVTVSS VL: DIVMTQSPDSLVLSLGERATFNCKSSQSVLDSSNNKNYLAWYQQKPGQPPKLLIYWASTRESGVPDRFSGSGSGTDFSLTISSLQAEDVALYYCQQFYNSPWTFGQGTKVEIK
Output: 0.000208

Task: Quick one: give measured koff for H4H10907P (antibody, human IgG4, V domains shown) VH: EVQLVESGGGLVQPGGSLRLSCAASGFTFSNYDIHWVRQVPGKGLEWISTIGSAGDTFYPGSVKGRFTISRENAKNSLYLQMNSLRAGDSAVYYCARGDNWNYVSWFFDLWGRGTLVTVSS VL: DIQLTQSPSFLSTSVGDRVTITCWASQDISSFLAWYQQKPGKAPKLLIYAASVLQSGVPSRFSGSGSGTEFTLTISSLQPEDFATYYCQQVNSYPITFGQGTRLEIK
Output: 4.45e-05
